Recorded remaining activity at 10 µM values for a group of molecules are listed next.
- target-desc: CDKs and other kinases (Homo sapiens, UniProt P06493)
- Construct: other: CDK1B; residual activity (%) at 10 μM CDK1B; compound at 10 μM
- Sequence (P06493 whole entry): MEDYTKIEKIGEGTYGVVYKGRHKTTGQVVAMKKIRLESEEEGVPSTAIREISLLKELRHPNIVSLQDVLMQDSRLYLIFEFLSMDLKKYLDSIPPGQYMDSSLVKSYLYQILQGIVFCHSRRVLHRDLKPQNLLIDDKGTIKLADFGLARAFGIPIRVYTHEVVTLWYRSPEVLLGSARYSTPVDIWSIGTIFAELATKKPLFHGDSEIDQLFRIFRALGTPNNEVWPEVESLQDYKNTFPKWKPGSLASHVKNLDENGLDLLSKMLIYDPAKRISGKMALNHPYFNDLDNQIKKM
- measurement-description: Radiometric kinase assay (Eurofins Pharma Discovery or Reaction Biology Corporation Kinase Profiler)
- Format: biochemical
- particulars: CDK1B; compound at 10 μM; read-out: residual activity (%) at 10 μM CDK1B
Numbers only; they are read as %.

Sample records with remaining activity at 10 µM:
Lookup: Given the entry N[C@H]1CC[C@H](Nc2ncc(F)c(-c3cnc4ccc(Nc5cccc(F)c5)cn34)n2)CC1 [Compound 25] , report its measured remaining activity at 10 µM.
Found: 3

Lookup: Also need Cc1cnc(N[C@H]2CC[C@H](N(CC(N)=O)CC(N)=O)CC2)nc1-c1cnc2ccc(Nc3cncnc3)cn12 [Compound 154] , thanks.
Found: 14

Lookup: Also need Cc1cnc(N[C@H]2CC[C@H](N)CC2)nc1-c1cnc2cc(C(F)(F)F)c(Br)cn12 [Compound 114] , thanks.
Found: 53

Lookup: Also need Cc1cnc(N[C@H]2CC[C@H](N)CC2)nc1-c1cnc2cc(Nc3cncnc3)ccn12 [Compound 56] , thanks.
Found: 39

Lookup: Also need N[C@H]1CC[C@H](Nc2ncc(F)c(-c3cnc4ccc(NC(=O)c5ccc(F)cc5)cn34)n2)CC1 [Compound 51] , thanks.
Found: 4

Further cases:
Lookup: Given the entry Cc1cnc(N[C@H]2CC[C@H](N)CC2)nc1-c1cnc2ccc(Oc3cccnc3)cn12 [Compound 74] , report its measured remaining activity at 10 µM.
Found: 39

Lookup: Also need N[C@H]1CC[C@H](Nc2ncc(F)c(-c3cnc4cc(-c5ccccc5)ccn34)n2)CC1 [Compound 44] , thanks.
Found: 0
